# TESTED_TARGET: P. falciparum apicoplast DNA polymerase (Pf-apPOL) (Plasmodium falciparum)
# Sequence (Q8ILY1 entry or part of it): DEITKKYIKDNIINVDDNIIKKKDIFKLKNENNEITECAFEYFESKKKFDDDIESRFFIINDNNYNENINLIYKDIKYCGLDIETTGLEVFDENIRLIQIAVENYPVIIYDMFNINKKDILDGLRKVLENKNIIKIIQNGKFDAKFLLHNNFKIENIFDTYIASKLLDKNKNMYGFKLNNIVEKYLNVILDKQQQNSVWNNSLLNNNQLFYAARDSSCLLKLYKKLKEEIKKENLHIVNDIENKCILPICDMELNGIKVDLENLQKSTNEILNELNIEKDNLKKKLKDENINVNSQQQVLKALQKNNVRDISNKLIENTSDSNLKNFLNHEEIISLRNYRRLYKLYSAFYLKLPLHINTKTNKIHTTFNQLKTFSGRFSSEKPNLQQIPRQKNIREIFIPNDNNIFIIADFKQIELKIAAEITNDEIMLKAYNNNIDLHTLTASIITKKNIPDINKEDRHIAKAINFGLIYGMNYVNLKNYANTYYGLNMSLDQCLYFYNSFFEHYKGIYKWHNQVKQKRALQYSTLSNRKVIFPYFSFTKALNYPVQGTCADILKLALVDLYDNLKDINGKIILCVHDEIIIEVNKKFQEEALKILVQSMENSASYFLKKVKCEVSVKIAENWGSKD
# PROCEDURE_TEXT: Fluorescence-based high-throughput DNA polymerase assay (molecular beacon), primary screen and dose-response
# Assay type: biochemical
# CONDITION_DESCRIPTION: DRC-1; 10'; concentration 10
QUANTITY: % inhibition Apo pol 10'

>>> val("COc1ccc(C(=O)N2CCc3c(nc4cc(-c5ccccc5Cl)[nH]n4c3=O)C2)cn1")
"48%"
>>> val("O=C(Nc1nnc(-c2ccno2)o1)c1ccc2ncsc2c1")
"33.6921%"
>>> val("CN(C)C=CC(=O)c1ccccn1")
"34.5693%"
>>> val("CCCCC(=O)N1CCc2c(nc3cc(-c4ccccc4Cl)[nH]n3c2=O)C1")
"50.6318%"

Inquiry: Fill in the recorded % inhibition Apo pol 10' for this molecule, with P. falciparum apicoplast DNA polymerase (Pf-apPOL) (Plasmodium falciparum) as test system: "CCCCc1ccc(NC(=O)CSc2nc(O)c(C#N)c(C3CCCCC3)n2)c(C)c1"
Reply text: 62.6303%

Inquiry: Fill in the recorded % inhibition Apo pol 10' for this molecule, with P. falciparum apicoplast DNA polymerase (Pf-apPOL) (Plasmodium falciparum) as test system: "Cc1cc(C)cc(-n2nc3c(c2NC(=O)c2ccco2)CSC3)c1"
Reply text: 59.7607%

Inquiry: Fill in the recorded % inhibition Apo pol 10' for this molecule, with P. falciparum apicoplast DNA polymerase (Pf-apPOL) (Plasmodium falciparum) as test system: "O=C(O)C(=O)Nc1nc(-c2ccc3c(c2)OCCO3)cs1"
Reply text: 36.2592%

Inquiry: Fill in the recorded % inhibition Apo pol 10' for this molecule, with P. falciparum apicoplast DNA polymerase (Pf-apPOL) (Plasmodium falciparum) as test system: CCOc1ccccc1-c1nc(-c2ccc(=O)[nH]c2)no1 [Molecule 76, CCOc1ccccc1c1onc(n1)c1ccc(=O)[nH]c1]
Reply text: 18.9586%
